ENDPOINT: melting point (°C)

Study these solved cases before continuing.
| SMILES_TEXT | UNIT_ANNOTATION | melting point |
| --- | --- | --- |
| CN(CCc1c[nH]c2ccccc12)CC1CCN(c2ncc(C(=O)NO)cn2)CC1 | °C | 121 |
| Cc1c(CCNCC2CCN(c3ncc(C(=O)NO)cn3)CC2)c2ccccc2n1C | °C | 80 |

a. CCCn1cc(CCN(CC)CC2CCN(c3ncc(C(=O)NO)cn3)CC2)c2ccc(OC)cc21
b. CCCn1cc(CNCC2CCN(c3ncc(C(=O)NO)cn3)CC2)c2cc(Cl)ccc21
From the recorded data, which exceeds the other in melting point: a or b ? Returns: label corresponding to the selected item.
b

* * *

Assay: Solubility/stability at different pH's, chemiluminescent nitrogen detector (C.3.b)
Type: physicochemical
Settings: aqueous buffer; pH = 2.3
ENDPOINT: solubility (µg/mL)

Study these solved cases before continuing.
| COMPOUND | RECORDED_MEASUREMENT |
| --- | --- |
| COc1ccc2c(CCNCC3CCN(c4ncc(C(=O)NO)cn4)CC3)cn(C)c2c1 [Compound 24] | 1600 |
| O=C(NO)c1cnc(N2CCC(CNCCc3c[nH]c4ccccc34)CC2)nc1 [Compound 5] | 2000 |
| Cn1cc(CNCC2CCN(c3ncc(C(=O)NO)cn3)CC2)c2cc(C#N)ccc21 [Compound 55] | 2000 |
| Cc1ccc2c(c1)c(CNCC1CCN(c3ncc(C(=O)NO)cn3)CC1)cn2C [Compound 36] | 2500 |
| O=C(NO)c1cnc(N2CCC(CNCc3cc4ccccc4o3)CC2)nc1 [Compound 10] | 3700 |
| Cc1cccc2c(CNCC3CCN(c4ncc(C(=O)NO)cn4)CC3)c[nH]c12 [Compound 14] | 1700 |

1. CN(CCc1cn(C)c2ccccc12)CC1CCN(c2ncc(C(=O)NO)cn2)CC1 [Compound 21]
2. Cn1c(CNCC2CCN(c3ncc(C(=O)NO)cn3)CC2)cc2ccccc21 [Compound 11]
From the recorded data, which exceeds the other in solubility: 1 or 2 ? Returns: label corresponding to the selected item.
2

* * *

Tested on: A2780 ovarian carcinoma cells
Test: Antiproliferative activity on A2780 cells, MTT (C.2)
Assay type: cell-based
Conditions: Homo sapiens, 96 h, four days of incubation, read-out: Cellular activity pIC50 C.2 (converted)
Description: All compounds tested were dissolved in DMSO and further dilutions were made in culture medium. Final DMSO concentrations never exceeded 0.1% (v/v) in cell proliferation assays. […] Cells were seeded in NUNC™ 96-well culture plates (Supplier: Life Technologies) and allowed to adhere to the plastic overnight. […] Following four days of incubation, medium was replaced by 200 μl fresh medium and cell density and viability was assessed using an MTT-based assay. […]
ENDPOINT: IC50 (nM)

Study these solved cases before continuing.
| SMILES_TEXT | ENDPOINT | RECORDED_MEASUREMENT |
| --- | --- | --- |
| Cn1cc(CNC2CCN(c3ncc(C(=O)NO)cn3)CC2)c2ccccc21 | IC50 | 501 |
| Cn1cc(CNCC2CCN(c3ncc(C(=O)NO)cn3)CC2)c2cc(Cl)ccc21 | IC50 | 3.98 |

a. CC(=O)N(Cc1cn(C)c2ccccc12)CC1CCN(c2ncc(C(=O)NO)cn2)CC1
b. O=C(NO)c1cnc(N2CCC(CNCCc3c[nH]c4ccccc34)CC2)nc1
c. CCN(Cc1cn(CC)c2ccccc12)CC1CCN(c2ncc(C(=O)NO)cn2)CC1
Falling order of IC50, please. Give the labels in the order specified.
b, a, c

* * *

System: A2780 ovarian carcinoma cells
Test: Antiproliferative activity on A2780 cells, MTT (C.2)
Format: cell-based
Settings: Homo sapiens, 96 h, four days of incubation, read-out: Cellular activity pIC50 C.2 (converted)
ENDPOINT: IC50 (µM)

Study these solved cases before continuing.
| SMILES_TEXT | ENDPOINT | RECORDED_MEASUREMENT |
| --- | --- | --- |
| CCCCn1cc(CNCC2CCN(c3ncc(C(=O)NO)cn3)CC2)c2ccccc21 | IC50 | 0.0158 |
| CCCn1cc(CNCC2CCN(c3ncc(C(=O)NO)cn3)CC2)c2cc(F)ccc21 | IC50 | 0.00794 |
| O=C(NO)c1cnc(N2CCC(CNCc3cccc4[nH]ccc34)CC2)nc1 | IC50 | 0.0158 |
| Cc1c(CCNCC2CCN(c3ncc(C(=O)NO)cn3)CC2)c2ccccc2n1C | IC50 | 0.0794 |

I. CCN(CCc1cn(C)c2ccc(Cl)cc12)CC1CCN(c2ncc(C(=O)NO)cn2)CC1
II. CCCn1cc(CNCC2CCN(c3ncc(C(=O)NO)cn3)CC2)c2cc3c(cc21)OCO3
From the recorded data, which exceeds the other in IC50: I or II ? Returns: label corresponding to the selected item.
II

a. Cn1ccc2ccc(CNCC3CCN(c4ncc(C(=O)NO)cn4)CC3)cc21
b. Cn1cc(CNCC2CCN(c3ncc(C(=O)NO)cn3)CC2)c2cc(C#N)ccc21
c. CCN(CCc1cn(C)c2cc(OC)ccc12)CC1CCN(c2ncc(C(=O)NO)cn2)CC1
Falling order of IC50, please. Give the labels in the order specified.
c, a, b

P. Cn1cc(CNCC2CCN(c3ncc(C(=O)NO)cn3)CC2)c2cccc(F)c21
Q. O=C(NO)c1cnc(N2CCC(CNCc3cc4ccccc4s3)CC2)nc1
R. Cn1cc(CNCC2CCN(c3ncc(C(=O)NO)cn3)CC2)c2cc3c(cc21)OCO3
// ascending sort on recorded IC50 Give the labels in the order specified.
R, P, Q

P. Cn1cc(CCN(CC2CCN(c3ncc(C(=O)NO)cn3)CC2)S(C)(=O)=O)c2cc(Cl)ccc21
Q. Cn1ccc2c(CNCC3CCN(c4ncc(C(=O)NO)cn4)CC3)cccc21
From the recorded data, which exceeds the other in IC50: P or Q ? Returns: label corresponding to the selected item.
P

* * *

Target: histone deacetylase (HeLa nuclear extracts)
Assay: In vitro assay for inhibition of histone deacetylase with fluorescent-labelled substrate (C.1.b)
Type: biochemical
Conditions: Fluor de Lys substrate
ENDPOINT: Enzymatic activity pIC50 C.1.b

| SMILES_TEXT | Enzymatic activity pIC50 C.1.b |
| --- | --- |
| O=C(NO)c1cnc(N2CCC(CNCc3c[nH]c4ccccc34)CC2)nc1 | 8.3 |
| CCn1cc(CNCC2CCN(c3ncc(C(=O)NO)cn3)CC2)c2ccccc21 | 8.4 |
| O=C(NO)c1cnc(N2CCC(CNCc3cn(Cc4ccccc4)c4ccccc34)CC2)nc1 | 10.2 |
| COc1cc2c(CNCC3CCN(c4ncc(C(=O)NO)cn4)CC3)cn(C)c2cc1OC | 8.7 |
| Cc1c(CCNCC2CCN(c3ncc(C(=O)NO)cn3)CC2)c2ccccc2n1C | 8.1 |
| O=C(NO)c1cnc(N2CCC(CNCc3c[nH]c4ccc(F)cc34)CC2)nc1 | 6.0 |
| CCCn1cc(CNCC2CCN(c3ncc(C(=O)NO)cn3)CC2)c2ccc(Cl)cc21 | 8.4 |
| CCC(=O)N(CCc1cn(C)c2cc(OC)ccc12)CC1CCN(c2ncc(C(=O)NO)cn2)CC1 | 7.5 |
| CC(=O)N(Cc1cn(C)c2ccccc12)CC1CCN(c2ncc(C(=O)NO)cn2)CC1 | 7.9 |
| Cn1ccc2c(CNCC3CCN(c4ncc(C(=O)NO)cn4)CC3)cccc21 | 8.7 |
| O=C(NO)c1cnc(N2CCC(CNCc3cccc4[nH]ccc34)CC2)nc1 | 8.9 |
| CC(C)n1cc(CNCC2CCN(c3ncc(C(=O)NO)cn3)CC2)c2ccccc21 | 10.0 |
| Cn1c(CNCC2CCN(c3ncc(C(=O)NO)cn3)CC2)cc2ccccc21 | 8.2 |
| O=C(NO)c1cnc(N2CCC(CNCCc3c[nH]c4ccc(Cl)cc34)CC2)nc1 | 7.8 |
| O=C(NO)c1cnc(N2CCC(CNCc3cn(C4CCCC4)c4ccccc34)CC2)nc1 | 9.0 |
| Cn1cc(CNCC2CCN(c3ncc(C(=O)NO)cn3)CC2)c2ccc(F)cc21 | 8.9 |
| CN(Cc1cn(C)c2ccccc12)CC1CCN(c2ncc(C(=O)NO)cn2)CC1 | 8.3 |

* * *

Target: histone deacetylase (HeLa nuclear extracts)
Assay: In vitro assay for inhibition of histone deacetylase with fluorescent-labelled substrate (C.1.b)
Format: biochemical
Conditions: Fluor de Lys substrate
Experimental: The HDAC Fluorescent Activity Assay/Drug Discovery Kit of Biomol (cat.No: AK-500-0001) was used. The HDAC Fluorescent Activity Assay is based on the Fluor de Lys (Fluorogenic Histone deAcetylase Lysyl) substrate and developer combination. The Fluor de Lys substrate, comprises an acetylated lysine side chain. […] After 30 min, 1 volume of the developer was added. […] For each sample the fluorescence was expressed as a percentage of the mean value of the controls. […]
ENDPOINT: Enzymatic activity pIC50 C.1.b

| MOLECULE | EXPERIMENTAL_TARGET | Enzymatic activity pIC50 C.1.b |
| --- | --- | --- |
| Cn1cc(CNCC2CCN(c3ncc(C(=O)NO)cn3)CC2)c2cc([N+](=O)[O-])ccc21 [Compound 18] | histone deacetylase (HeLa nuclear extracts) | 8.3 |
| Cn1cc(CNCC2CCN(c3ncc(C(=O)NO)cn3)CC2)c2c(Cl)cccc21 [Compound 58] | histone deacetylase (HeLa nuclear extracts) | 10.0 |
| CCCn1cc(CCN(CC)CC2CCN(c3ncc(C(=O)NO)cn3)CC2)c2ccc(OC)cc21 [Compound 25] | histone deacetylase (HeLa nuclear extracts) | 7.6 |
| CCCn1cc(CNCC2CCN(c3ncc(C(=O)NO)cn3)CC2)c2ccccc21 [Compound 62] | histone deacetylase (HeLa nuclear extracts) | 9.5 |
| COc1ccc2c(c1)c(CCNCC1CCN(c3ncc(C(=O)NO)cn3)CC1)cn2C [Compound 74] | histone deacetylase (HeLa nuclear extracts) | 8.2 |
| Cn1cc(CCN(CC2CCN(c3ncc(C(=O)NO)cn3)CC2)S(C)(=O)=O)c2cc(Cl)ccc21 [Compound 22] | histone deacetylase (HeLa nuclear extracts) | 9.1 |
| O=C(NO)c1cnc(N2CCC(CNCc3cc4ccccc4o3)CC2)nc1 [Compound 10] | histone deacetylase (HeLa nuclear extracts) | 8.1 |
| Cn1cc(CCNCC2CCN(c3ncc(C(=O)NO)cn3)CC2)c2ccccc21 [Compound 19] | histone deacetylase (HeLa nuclear extracts) | 8.0 |
